Recorded TD50 values for a group of molecules are listed next.
# Tested on: Peripheral blood mononuclear cells (PBMC)
# Format: cell-based
# particulars: human, 7 days
Please respond with the number in µM and leave the unit unwritten.

Asked: Name the recorded TD50 for C[C@@H](NC(=O)c1nc(-c2nccc3ccccc23)nc(O)c1O)C1CCCCC1 .
Given back: 5

Asked: Entry COc1ccnc(-c2nc(O)c(O)c(C(=O)N[C@H](C)C3CCCCC3)n2)c1 has what TD50?
Given back: 2.7

Asked: For the molecule Cc1cccnc1-c1nc(O)c(O)c(C(=O)N[C@H](C)C2CCCCC2)n1 , what TD50 is on record?
Given back: 8.9

---

# Tested on: Peripheral blood mononuclear cells (PBMC)
# Assay type: cell-based
# particulars: human, 7 days
// class assignment uses Proliferation assay PBMC TD50 with these ranges: band 1: < 2000 nM; band 2: ≥ 2000 nM and < 4000 nM; band 3: ≥ 4000 nM

Consider the worked cases shown below.
| compound | target.of.assay | group |
| --- | --- | --- |
| C[C@@H](NC(=O)c1nc(-c2ccc(C(=O)NCc3ccccc3)cn2)nc(O)c1O)C1CCCCC1 | Peripheral blood mononuclear cells (PBMC) | band 2 |
| C[C@H](NC(=O)c1nc(-c2cc(C(=O)OCc3ccccc3)ccn2)nc(O)c1O)C1CCCCC1 | Peripheral blood mononuclear cells (PBMC) | band 1 |
| CC1CCCCC1NC(=O)c1nc(-c2ccccn2)nc(O)c1O (stereo not shown) | Peripheral blood mononuclear cells (PBMC) | band 2 |
| C[C@H](NC(=O)c1nc(-c2cc(Cl)ccn2)nc(O)c1O)C1CCCCC1 | Peripheral blood mononuclear cells (PBMC) | band 1 |
| Cc1cccnc1-c1nc(O)c(O)c(C(=O)N[C@@H](C)C2CCCCC2)n1 | Peripheral blood mononuclear cells (PBMC) | band 2 |
| C[C@@H](NC(=O)c1nc(-c2cccc(N)n2)nc(O)c1O)C1CCCCC1 | Peripheral blood mononuclear cells (PBMC) | band 2 |
| C[C@@H](NC(=O)c1nc(-c2ccc(Cl)cn2)nc(O)c1O)C1CCCCC1 | Peripheral blood mononuclear cells (PBMC) | band 2 |
| O=C(NCC1CCCCC1)c1nc(-c2ncccc2Cl)nc(O)c1O | Peripheral blood mononuclear cells (PBMC) | band 3 |

Asked: Consider C[C@@H](NC(=O)c1nc(-c2ncccc2Cl)nc(O)c1O)C1CCCCC1 . To which Proliferation assay PBMC TD50 class does it belong?
Given back: band 2

Asked: Category of CC(NC(=O)c1nc(-c2nccc3ccccc23)nc(O)c1O)C1CCC(F)(F)CC1 (stereo not shown) , please.
Given back: band 3

---

The entries below come with measured IC50 values attached.
# target.of.assay: NC(11-55) (Human immunodeficiency virus type 1, UniProt P12493)
# procedure.summary: NC inhibition assay (NC-induced cTAR DNA destabilization, fluorescence)
# Type: biochemical, HIV-1
Field: numeric (µM). Do not append units.

| smiles | measured.metric | assay.result |
| --- | --- | --- |
| CC(C)(CNC(=O)c1nc(-c2ccccn2)nc(O)c1O)C1CCCC1 | IC50 | 7 |
| Cc1cccc(-c2nc(O)c(O)c(C(=O)N[C@H](C)C3CCCCC3)n2)n1 | IC50 | 20 |
| Cc1cccnc1-c1nc(O)c(O)c(C(=O)N[C@H](C)C2CCCCC2)n1 | IC50 | 20.5 |
| O=C(OCC1CCCCC1)c1nc(-c2ccccn2)nc(O)c1O | IC50 | 74 |
| O=C(NCC1CC1)c1nc(-c2ccccn2)nc(O)c1O | IC50 | 390 |
| C[C@@H](NC(=O)c1nc(-c2cc(CCNCc3cccn3C)ccn2)nc(O)c1O)C1CCCCC1 | IC50 | 12 |
| Cc1cccnc1-c1nc(O)c(O)c(C(=O)NCC2CCCCC2)n1 | IC50 | 14.3 |
| C[C@@H](NC(=O)c1nc(-c2ccc(C(N)=O)cn2)nc(O)c1O)C1CCCCC1 | IC50 | 10 |

In the following, a different compound is considered.
Asked: Entry C[C@@H](NC(=O)c1nc(-c2cc(Cl)ccn2)nc(O)c1O)C1CCCCC1 : reported IC50 = ?
Given back: 1.5

---

# Tested on: Peripheral blood mononuclear cells (PBMC)
# Format: cell-based
# particulars: human, 7 days
// values below are reported Proliferation assay PBMC TD50
Could you give me the number in µM? Just the number is fine.

| compound | measured.metric | unit.abbrev | assay.result |
| --- | --- | --- | --- |
| C[C@@H](NC(=O)c1nc(-c2nccc3ccccc23)nc(O)c1O)C1CCCCC1 [Compound 31] | Proliferation assay PBMC TD50 | µM | 5 |
| COc1ccnc(-c2nc(O)c(O)c(C(=O)NC3CCC(C)(C)CC3)n2)c1 [Compound 77] | Proliferation assay PBMC TD50 | µM | 2.2 |

Please turn your attention to the following entry.
Asked: What Proliferation assay PBMC TD50 value was documented for this compound, C[C@@H](NC(=O)c1nc(-c2nc3ccccc3[nH]2)nc(O)c1O)C1CCCCC1 [Compound 29] ?
Given back: 1.7

---

Catalogue of compounds with associated IC50
# target.of.assay: NC(11-55) (Human immunodeficiency virus type 1, UniProt P12493)
# procedure.summary: NC inhibition assay (NC-induced cTAR DNA destabilization, fluorescence)
# Assay type: biochemical, HIV-1
Answer in µM, number only, no unit symbol.

| smiles | IC50 (µM) |
| --- | --- |
| COc1cccc(-c2nc(O)c(O)c(C(=O)N[C@H](C)C3CCCCC3)n2)n1 | 29 |
| C[C@@H](NC(=O)c1nc(-c2ccc(N3CCN(C)CC3)cn2)nc(O)c1O)C1CCCCC1 | 18 |

Asked: Suppose we examine the compound C[C@@H](NC(=O)c1nc(-c2ncccc2Cl)nc(O)c1O)C1CCCCC1 ; what IC50 value has been reported?
Given back: 18

Asked: Looking for the measured IC50 of COc1ccnc(-c2nc(O)c(O)c(C(=O)N[C@@H](C)C3CCCCC3)n2)c1 , can you help?
Given back: 49

---

# Test system: HeLa cells
# procedure.summary: HeLa Proliferation assay (CellTiter Glo)
# Type: cell-based
# particulars: 72 hours
Under this convention, yes denotes Proliferation assay HELA TD50 strictly below 4 µM and no denotes Proliferation assay HELA TD50 at or above 4 µM.

| smiles | group |
| --- | --- |
| C[C@H](NC(=O)c1nc(-c2cc(C(=O)OCc3ccccc3)ccn2)nc(O)c1O)C1CCCCC1 | no |
| C[C@@H](NC(=O)c1nc(-c2ncccc2C(F)(F)F)nc(O)c1O)C1CCCCC1 | no |
| CCNCc1ccc(-c2nc(O)c(O)c(C(=O)N[C@H](C)C3CCCCC3)n2)nc1 | no |
| O=C(NCC1CCC1)c1nc(-c2cc3ccccc3cn2)nc(O)c1O | yes |
| C[C@H](NC(=O)c1nc(-c2nccc3ccccc23)nc(O)c1O)C1CCCCC1 | yes |
| O=C(NCC1CCCCC1)c1nc(-c2ncccc2Cl)nc(O)c1O | no |

Asked: Decide: Proliferation assay HELA TD50 of C[C@@H](NC(=O)c1nc(-c2ccc(CO)cn2)nc(O)c1O)C1CCCCC1 strictly below 4 µM?
Given back: yes

Asked: State whether 4 µM exceeds Proliferation assay HELA TD50 recorded for C[C@@H](NC(=O)c1nc(-c2cccc(C(F)(F)F)n2)nc(O)c1O)C1CCCCC1 .
Given back: no

Asked: I wonder whether Cc1ccnc(-c2nc(O)c(O)c(C(=O)NC3(C4CCCCC4)CC3)n2)c1 has Proliferation assay HELA TD50 below 4 µM. Can you tell?
Given back: yes

---

# Tested on: HeLa cells
# procedure.summary: HeLa Proliferation assay (CellTiter Glo)
# Assay type: cell-based
# particulars: 72 hours
Simple rule here: Proliferation assay HELA TD50 less than 4000 nM is Yes, otherwise No.

| compound | group |
| --- | --- |
| Cc1cccnc1-c1nc(O)c(O)c(C(=O)NCC2CCCCC2)n1 [Compound 11] | No |
| CN1CCCC(CNC(=O)c2nc(-c3ccccn3)nc(O)c2O)C1 (centres unmarked) [Compound 7] | No |
| C[C@@H](NC(=O)c1nc(-c2cc(CCNCc3cccn3C)ccn2)nc(O)c1O)C1CCCCC1 [Compound 91] | Yes |
| C[C@@H](NC(=O)c1nc(-c2cc3ccccc3cn2)nc(O)c1O)C1CCCCC1 [Compound 25] | Yes |
| O=C(NCCC1CCCC1)c1nc(-c2ccccn2)nc(O)c1O [Compound 43] | Yes |

Asked: # strict comparison: is reported Proliferation assay HELA TD50 < 4000 nM? input = C[C@H](CC1CCCCC1)NC(=O)c1nc(-c2ccccn2)nc(O)c1O [Compound 64]
Given back: Yes

Asked: Please check: Proliferation assay HELA TD50 for Cc1cc(-c2nc(O)c(O)c(C(=O)N[C@H](C)C3CCCCC3)n2)nc2ccccc12 [Compound 73] , strictly under 4000 nM or not?
Given back: No

Asked: Check if Proliferation assay HELA TD50 falls below 4000 nM for C[C@@H](NC(=O)c1nc(-c2cc(N3CCN(C)CC3)ccn2)nc(O)c1O)C1CCCCC1 [Compound 76] .
Given back: Yes
